Reference for the values: patent US20150376198A1

target: human Arginine Vasopressin Receptor 1a (AVPR1a) (Homo sapiens, UniProt P37288); assay: cell-based; details: read-out: V1a-R IC50
Sequence (P37288 whole entry): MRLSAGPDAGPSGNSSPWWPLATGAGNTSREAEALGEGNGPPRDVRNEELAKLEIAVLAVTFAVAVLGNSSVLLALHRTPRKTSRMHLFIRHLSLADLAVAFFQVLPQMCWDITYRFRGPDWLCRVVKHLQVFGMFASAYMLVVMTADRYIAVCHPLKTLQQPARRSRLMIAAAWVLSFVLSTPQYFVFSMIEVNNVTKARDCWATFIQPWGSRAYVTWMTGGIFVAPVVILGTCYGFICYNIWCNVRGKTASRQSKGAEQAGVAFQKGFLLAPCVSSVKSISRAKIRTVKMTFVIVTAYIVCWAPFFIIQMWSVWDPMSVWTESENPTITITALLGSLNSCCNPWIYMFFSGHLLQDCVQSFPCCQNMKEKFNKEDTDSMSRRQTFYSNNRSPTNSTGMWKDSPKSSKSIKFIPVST

| item.smiles | study.target | unit.text | IC50 |
| --- | --- | --- | --- |
| O=C(C1CCN(c2ncc(Cl)cc2F)CC1)N1CCCCc2cc(Cl)ccc21 | human Arginine Vasopressin Receptor 1a (AVPR1a) (Homo sapiens, UniProt P37288) | nM | 19 |
| O=C(N1CCN(c2ncccc2C(F)(F)F)CC1)N1CCCCc2cc(Cl)ccc21 | human Arginine Vasopressin Receptor 1a (AVPR1a) (Homo sapiens, UniProt P37288) | nM | 54 |
| COc1ccc(C(=O)N2CCC(C(=O)N3CCCCc4cc(Cl)ccc43)CC2)cc1 | human Arginine Vasopressin Receptor 1a (AVPR1a) (Homo sapiens, UniProt P37288) | nM | 1780 |
| O=C(C1CCN(c2ncnc3ccc(F)cc23)CC1)N(CC1CC1)c1ccc(Cl)cc1 | human Arginine Vasopressin Receptor 1a (AVPR1a) (Homo sapiens, UniProt P37288) | nM | 74 |

====

molecular target: human Arginine Vasopressin Receptor 1a (AVPR1a) (Homo sapiens); experiment: cell-based; details: read-out: V1a-R IC50
# IC50 annotations

| compound | unit.text | IC50 |
| --- | --- | --- |
| O=C(C1CCN(c2cnccn2)CC1)N(CC1CC1)c1ccc(Cl)cc1 [Compound 152] | nM | 45 |
| Cc1cc(C)nc(N2CCC(C(=O)N(CC3CCC3)c3ccc(Cl)cc3)CC2)n1 [Compound 200] | nM | 229 |
| O=C(C1CCN(c2ccccn2)CC1)N(CC1CC1)c1ccc(Cl)cc1 [Compound 154] | nM | 15 |
| Cc1noc(C)c1C(=O)N1CCC(C(=O)N2CCCCc3cc(Cl)ccc32)CC1 [Compound 80] | nM | 15100 |
| O=C(C1CCN(c2ncc3c(n2)CCC3)CC1)N1CCCCc2cc(Cl)ccc21 [Compound 215] | nM | 7 |
| N#Cc1ccnc(N2CCC(C(=O)N(CC3CC3)c3ccc(Cl)cc3)CC2)c1 [Compound 173] | nM | 63 |

====

target: human V1a receptor (Homo sapiens, UniProt P37288); construct: expressed in transfected cells; host or cells: CHO cells (G418-selected hV1a cell line); assay: Vasopressin V1a receptor binding assay (3H-AVP competition, CHO cells); conditions: read-out: V1A binding, mean % inhibition
# inhibition at 10 µM annotations
quantity.kind: inhibition at 10 µM

| compound | study.target | result |
| --- | --- | --- |
| COc1ccc(NC(=O)N2CCN(c3ccccc3C)CC2)cc1 [Compound 1] | human V1a receptor (Homo sapiens, UniProt P37288) | 34.1% |
| CCN(C(=O)N1CCN(Cc2ccccc2)CC1)c1ccc(OC)cc1 [Compound 8] | human V1a receptor (Homo sapiens, UniProt P37288) | 35.1% |
| CCN(C(=O)N1CCN(C(=O)OC(C)(C)C)CC1)c1ccc(OC)cc1 [Compound 10] | human V1a receptor (Homo sapiens, UniProt P37288) | 2.2% |
| O=C(OCc1ccccc1)N1CCC(C(=O)N(CC2CC2)CC2CCCO2)CC1 (centres unmarked) [Compound 15] | human V1a receptor (Homo sapiens, UniProt P37288) | 19% |
| CCN(C(=O)C1CCN(C(=O)OCc2ccccc2)CC1)c1ccc(OC)cc1 [Compound 18] | human V1a receptor (Homo sapiens, UniProt P37288) | 19% |

====

target: human Arginine Vasopressin Receptor 1a (AVPR1a) (Homo sapiens); test: cell-based; conditions: read-out: V1a-R IC50
Output 1 for records whose IC50 is lower than 100 nM, -1 for records at or above 100 nM.

| item.smiles | cat |
| --- | --- |
| O=C(C1CCN(c2ncccn2)CC1)N1CCCCc2cc(Cl)ccc21 | -1 |
| Cc1nc(N2CCC(C(=O)N(CC3CC3)c3ccc(Cl)cc3)CC2)ncc1F | 1 |
| CCCN(C(=O)C1CCN(c2nc(C)cc(C)n2)CC1)c1ccc(Cl)cc1 | -1 |
| O=C(N1CCC(c2ccccc2)CC1)N1CCCCc2cc(Cl)ccc21 | 1 |

====

molecular target: human Arginine Vasopressin Receptor 1a (AVPR1a) (Homo sapiens); assay: cell-based; conditions: read-out: V1a-R IC50
quantity.kind: log10 of IC50 (log10 of the value in nM)

| item.smiles | log10 of IC50 |
| --- | --- |
| O=C(N1CCN(c2ncccn2)CC1)N1CCCCc2cc(Cl)ccc21 | 2.41 |
| N#Cc1cccnc1N1CCC(C(=O)N(CC2CC2)c2ccc(Cl)cc2)CC1 | 1.83 |
| O=C(c1cc(F)cc(F)c1)N1CCC(C(=O)N2CCCCc3cc(Cl)ccc32)CC1 | 3.20 |
| Cc1ccnc(N2CCN(C(=O)N(CC3CC3)c3ccc(Cl)cc3)CC2)c1 | 1.20 |
| O=C(N1CCN(c2ncc(Cl)cn2)CC1)N(CC1CC1)c1ccc(Cl)cc1 | 2.31 |

====

# Ki annotations
target: human V1a receptor (Homo sapiens); construct: expressed in transfected cells; host or cells: CHO cells (G418-selected hV1a cell line); experiment: Vasopressin V1a receptor binding assay (3H-AVP competition, CHO cells); settings: read-out: V1A binding Ki

| molecule | Ki |
| --- | --- |
| CCN(C(=O)N1CCN(C(=O)C23CC4CC(CC(C4)C2)C3)CC1)c1ccc(OC)cc1 [Compound 25] | 3.88 µM |
| CCN(C(=O)N1CCN(c2ncccn2)CC1)c1ccc(OC)cc1 [Compound 22] | 1.59 µM |

====

molecular target: OT receptor (Homo sapiens); test: OT receptor binding (primary binding at 10 μM and Ki); conditions: at 10 μM; read-out: OT binding, mean % inhibition
Sequence (P30559 whole entry): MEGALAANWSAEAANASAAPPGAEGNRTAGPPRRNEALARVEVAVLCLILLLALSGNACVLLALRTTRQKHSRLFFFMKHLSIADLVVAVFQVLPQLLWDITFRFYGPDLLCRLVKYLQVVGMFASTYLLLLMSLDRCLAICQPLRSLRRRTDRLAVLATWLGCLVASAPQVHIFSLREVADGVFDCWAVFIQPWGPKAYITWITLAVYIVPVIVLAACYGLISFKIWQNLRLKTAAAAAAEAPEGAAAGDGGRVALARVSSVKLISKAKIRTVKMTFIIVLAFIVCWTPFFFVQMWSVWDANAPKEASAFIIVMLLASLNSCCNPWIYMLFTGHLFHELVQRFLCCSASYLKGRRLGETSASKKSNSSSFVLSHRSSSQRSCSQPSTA
# inhibition at 10 µM annotations

| molecule | inhibition at 10 µM [%] |
| --- | --- |
| COc1ccc(-n2c(C)nnc2-c2ccc(CNC(=O)N3CCN(Cc4cc(O)cc(O)c4)CC3)c(C)c2)cn1 [Compound 14] | 19.6 |
| Cc1cc(C(=O)N(CC2CC2)CC2CCCO2)ccc1CNC(=O)N1CCN(Cc2cc(O)cc(O)c2)CC1 (stereo not drawn) [Compound 13] | 16.1 |
| COC(=O)CC(NC(=O)OC(C)(C)C)C(=O)N1CCN(c2ccccc2C)CC1 (stereo not drawn) [Compound 12] | 10.6 |
| O=C(OCc1ccccc1)N1CCC(C(=O)N(CC2CC2)CC2CCCO2)CC1 (stereo not drawn) [Compound 15] | 2.8 |
| CCN(C(=O)N1CCN(C(=O)OC(C)(C)C)CC1)c1ccc(OC)cc1 [Compound 10] | 17.1 |
| CCN(C(=O)N1CCN(C(=O)c2ccccc2)CC1)c1ccc(OC)cc1 [Compound 9] | 22.3 |

====

biological target: V2 receptor (Homo sapiens); assay: V2 receptor binding (primary binding at 10 μM and Ki); conditions: at 10 μM; read-out: V2 binding, mean % inhibition
Sequence (P30518 whole entry): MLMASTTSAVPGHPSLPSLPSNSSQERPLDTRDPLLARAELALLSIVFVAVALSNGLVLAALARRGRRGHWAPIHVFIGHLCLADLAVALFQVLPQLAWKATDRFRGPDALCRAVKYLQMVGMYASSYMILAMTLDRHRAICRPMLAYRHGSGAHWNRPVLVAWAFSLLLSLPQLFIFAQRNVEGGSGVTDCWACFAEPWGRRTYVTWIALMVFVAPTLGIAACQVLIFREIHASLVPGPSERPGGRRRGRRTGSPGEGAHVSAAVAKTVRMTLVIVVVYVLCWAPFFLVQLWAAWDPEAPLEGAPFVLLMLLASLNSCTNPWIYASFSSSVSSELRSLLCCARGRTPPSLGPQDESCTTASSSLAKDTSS
quantity.kind: inhibition at 10 µM (%)

| molecule | study.target | reported.relation | numeric.result |
| --- | --- | --- | --- |
| CCN(C(=O)C1CCN(c2ncccc2C(F)(F)F)CC1)c1ccc(OC)cc1 | V2 receptor (Homo sapiens) | = | 23.3 |
| CCN(C(=O)N1CCN(c2ncccc2C#N)CC1)c1ccc(OC)cc1 | V2 receptor (Homo sapiens) | = | 5.7 |
| CCN(C(=O)N1CCN(c2ncccc2C)CC1)c1ccc(OC)cc1 | V2 receptor (Homo sapiens) | = | 24.3 |
| COCCN(C(=O)N1CCN(c2ccccc2C)CC1)c1ccc(OC)cc1 | V2 receptor (Homo sapiens) | = | 24.5 |
| CCN(C(=O)N1CCN(c2ccccc2C)CC1)c1ccc(OC)cc1 | V2 receptor (Homo sapiens) | = | 33.6 |
| Cc1cc(C(=O)N(CC2CC2)CC2CCCO2)ccc1CNC(=O)N1CCN(Cc2cc(O)cc(O)c2)CC1 (stereo not shown) | V2 receptor (Homo sapiens) | = | 13.6 |
| O=C(OCc1ccccc1)N1CCC(C(=O)N(CC2CC2)CC2CCCO2)CC1 (stereo not shown) | V2 receptor (Homo sapiens) | = | 12.8 |
| CCN(C(=O)N1CCCN(c2ncccc2C(F)(F)F)CC1)c1ccc(OC)cc1 | V2 receptor (Homo sapiens) | = | 33 |
| CCN(C(=O)N1CCN(c2ncccc2Cl)CC1)c1ccc(OC)cc1 | V2 receptor (Homo sapiens) | = | 12.7 |
| COc1ccc(-n2c(C)nnc2-c2ccc(CNC(=O)N3CCN(Cc4cc(O)cc(O)c4)CC3)c(C)c2)cn1 | V2 receptor (Homo sapiens) | = | 5.8 |
| CCN(C(=O)N1CCN(c2ccccn2)CC1)c1ccc(OC)cc1 | V2 receptor (Homo sapiens) | = | 17.9 |
| Cc1ccccc1N1CCN(C(=O)N(CC2CC2)CC2CCCO2)CC1 (stereo not shown) | V2 receptor (Homo sapiens) | = | 17.7 |
| CCN(C(=O)N1CCN(c2ncccn2)CC1)c1ccc(OC)cc1 | V2 receptor (Homo sapiens) | = | 6.6 |
| CCN(C(=O)N1CCN(C(=O)C23CC4CC(CC(C4)C2)C3)CC1)c1ccc(OC)cc1 | V2 receptor (Homo sapiens) | = | 40.4 |
| CCN(C(=O)N1CCN(c2ncccc2C(F)(F)F)CC1)c1ccc(OC)cc1 | V2 receptor (Homo sapiens) | = | 33 |
| COc1ccc(N(CC2CC2)C(=O)C2CCN(Cc3ccccc3Cl)C2)cc1 (stereo not shown) | V2 receptor (Homo sapiens) | < | 50 |
